Values were extracted from patent US12606805B2.

test system: PC-3 cells; experiment: MTT cell viability assay after photodynamic therapy; conditions: read-out: IC50 (cell killing, MTT); PC-3 cells, 8 h incubation, 30 min white light illumination
PROPERTY NAME: IC50
Respond with the figure and its unit, in that order.

QUERY: What does the record list as IC50 for C#Cc1ccc(C2=C3C=CC(=N3)C(c3cc[n+](C)cc3)=c3ccc4[n]3[Zn][n]3c2ccc3C(c2cc[n+](C)cc2)=C2C=CC(=N2)C=4c2cc[n+](C)cc2)cc1.[I-].[I-].[I-] ?
RESULT: 50 nM

* * *

Record form. Attribute: Number of guest molecules loaded per VLP (affinity of the VLPs). Fill in for each entry.
molecular target: PhMV-derived VLPs (Physalis mottle virus, UniProt P36351); construct: The coat protein gene (564 bp) was inserted into the vector pRSET-A and expressed in ClearColi BL21(DE3); made in house; host or cells: E. coli ClearColi BL21(DE3); conditions: infusion overnight at room temperature, molar excess 500 to 10,000 per VLP
Sequence (P36351 whole entry, the tested form may be a part): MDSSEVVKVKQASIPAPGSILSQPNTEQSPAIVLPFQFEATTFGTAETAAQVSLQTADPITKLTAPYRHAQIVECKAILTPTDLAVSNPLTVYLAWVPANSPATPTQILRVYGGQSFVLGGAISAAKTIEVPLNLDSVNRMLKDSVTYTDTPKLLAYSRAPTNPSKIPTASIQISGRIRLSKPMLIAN
Expressed in molecules per particle, but write only the number.

QUERY: What does the record list as Number of guest molecules loaded per VLP (affinity of the VLPs) for CN(C)c1ccc(C(=C2C=CC(=[N+](C)C)C=C2)c2ccc(N(C)C)cc2)cc1 [crystal violet] ?
RESULT: 2000

QUERY: What does the record list as Number of guest molecules loaded per VLP (affinity of the VLPs) for O=C1c2c(O)ccc(O)c2C(=O)c2c(NCCNCCO)ccc(NCCNCCO)c21 [MTX, mitoxantrone] ?
RESULT: 450

QUERY: What does the record list as Number of guest molecules loaded per VLP (affinity of the VLPs) for COc1cccc2c1C(=O)c1c(O)c3c(c(O)c1C2=O)C[C@@](O)(C(=O)CO)C[C@@H]3O[C@H]1C[C@H](N)[C@H](O)[C@H](C)O1 [DOX, doxorubicin] ?
RESULT: 750
